Recorded measurements of inhibition at 1 µM, one per entry
molecular target: hERG (KCNH2) (Homo sapiens); assay: Inhibition of human ERG at 1 uM
Sequence (Q12809 whole entry): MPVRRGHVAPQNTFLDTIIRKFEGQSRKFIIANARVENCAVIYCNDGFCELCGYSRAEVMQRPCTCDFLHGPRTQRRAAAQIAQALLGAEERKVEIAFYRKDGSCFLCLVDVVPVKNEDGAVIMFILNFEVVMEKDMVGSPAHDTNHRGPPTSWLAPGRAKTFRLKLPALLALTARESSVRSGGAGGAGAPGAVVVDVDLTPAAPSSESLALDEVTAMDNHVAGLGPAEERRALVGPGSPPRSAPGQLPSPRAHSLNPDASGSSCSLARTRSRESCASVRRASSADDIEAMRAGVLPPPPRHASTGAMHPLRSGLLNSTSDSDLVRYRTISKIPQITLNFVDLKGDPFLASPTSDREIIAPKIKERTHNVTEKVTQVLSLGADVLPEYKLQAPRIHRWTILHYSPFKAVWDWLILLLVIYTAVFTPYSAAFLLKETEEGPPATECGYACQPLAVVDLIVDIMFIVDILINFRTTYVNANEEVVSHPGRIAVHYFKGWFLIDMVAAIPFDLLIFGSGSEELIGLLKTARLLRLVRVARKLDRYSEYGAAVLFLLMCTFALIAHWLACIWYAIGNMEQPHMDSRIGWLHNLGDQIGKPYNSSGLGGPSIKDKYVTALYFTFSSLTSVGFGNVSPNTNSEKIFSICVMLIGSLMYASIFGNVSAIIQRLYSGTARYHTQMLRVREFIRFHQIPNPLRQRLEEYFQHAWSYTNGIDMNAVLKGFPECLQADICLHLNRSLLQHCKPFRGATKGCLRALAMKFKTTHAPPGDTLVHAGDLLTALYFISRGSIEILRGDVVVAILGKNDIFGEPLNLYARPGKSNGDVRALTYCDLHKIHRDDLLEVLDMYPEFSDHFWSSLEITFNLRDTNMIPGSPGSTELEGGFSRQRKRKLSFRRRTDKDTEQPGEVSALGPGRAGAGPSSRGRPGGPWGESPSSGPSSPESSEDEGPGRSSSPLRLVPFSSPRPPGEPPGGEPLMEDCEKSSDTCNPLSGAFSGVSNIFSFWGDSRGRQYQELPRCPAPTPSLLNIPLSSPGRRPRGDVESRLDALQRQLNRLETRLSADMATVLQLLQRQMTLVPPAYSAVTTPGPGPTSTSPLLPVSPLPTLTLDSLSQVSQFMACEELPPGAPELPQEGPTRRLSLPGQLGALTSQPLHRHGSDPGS
Could you give me the number in %? Just the number is fine.

Problem: Return the recorded inhibition at 1 µM value; entry: "Cc1nc(N2CCC(O)(C3CCC3)CC2)nc2ccc(NC(=O)COc3ccc(OC(F)(F)F)cc3)cc12"
Solution: 31

Problem: Return the recorded inhibition at 1 µM value; entry: Cc1nc(N2CCC(N3CCCC3)CC2)nc2ccc(NC(=O)C(C)Oc3ccc(Cl)cc3)cc12 (stereo not drawn)
Solution: 76

--- query ---
Problem: Return the recorded inhibition at 1 µM value; entry: "Cc1nc(N2CCC(C(=O)C3CC3)CC2)nc2ccc(NC(=O)COc3ccc(OC(F)(F)F)cc3)cc12"
Solution: 32

----------
Recorded measurements of log10(IC50), one per entry
molecular target: Melanin-concentrating hormone receptor 1 (Homo sapiens); experiment: Antagonist activity at human MCHR1 expressed in CHO-K1 cells assessed as inhibition of MCH peptide mediated response measuring [3H]inositol phosphate production by IP3-SPA-YSI assay; format: functional, cell-based
Values reflect log10 of reported IC50 (nM).

Problem: Return the recorded log10(IC50) value; entry: "Cc1nc(N2CCC(O)(C3CCCCC3)CC2)nc2ccc(NC(=O)COc3ccc(OC(F)(F)F)cc3)cc12"
Solution: 2.19

Problem: Return the recorded log10(IC50) value; entry: "Cc1nc(N2CCC(N3CCOCC3)CC2)nc2ccc(NC(=O)COc3ccc(OC(F)(F)F)cc3)cc12"
Solution: 1.20

Problem: Return the recorded log10(IC50) value; entry: "Cc1nc(N2CCN(C(=O)C3CCC3)CC2)nc2ccc(NC(=O)COc3ccc(OC(F)(F)F)cc3)cc12"
Solution: 1.65

Problem: Return the recorded log10(IC50) value; entry: "Cc1nc(N2CCC(NC(=O)C(C)C)CC2)nc2ccc(NC(=O)COc3ccc(Cl)cc3)cc12"
Solution: 1.73

Problem: Return the recorded log10(IC50) value; entry: "Cc1nc(N2CCC(C(=O)NC(C)C)CC2)nc2ccc(NC(=O)COc3ccc(Cl)cc3)cc12"
Solution: 1.40

Problem: Return the recorded log10(IC50) value; entry: "Cc1nc(N2CCN(C(=O)C(C)C)CC2)nc2ccc(NC(=O)COc3ccc(OC(F)(F)F)cc3)cc12"
Solution: 1.52

Further cases:
Problem: Return the recorded log10(IC50) value; entry: "Cc1nc(N2CCCCC2)nc2ccc(NC(=O)COc3ccc(Cl)cc3)cc12"
Solution: 2.48

Problem: Return the recorded log10(IC50) value; entry: "Cc1nc(N2CCN(C3CCOCC3)CC2)nc2ccc(NC(=O)COc3ccc(OC(F)(F)F)cc3)cc12"
Solution: 1.49

----------
test: Tmax in Swiss albino mouse brain at 30 mg/kg, po; format: ADME, organism-based; parameters: dose 30 mg/kg, route oral
value.kind: Tmax (h)
Could you give me the number in h? Just the number is fine.

Problem: Return the recorded Tmax value; entry: "Cc1nc(N2CCC(N3CCOCC3)CC2)nc2ccc(NC(=O)COc3ccc(OC(F)(F)F)cc3)cc12"
Solution: 1

----------
molecular target: Melanin-concentrating hormone receptor 1 (Homo sapiens, UniProt Q99705); experiment: Antagonist activity at human MCHR1 expressed in CHO-K1 cells assessed as inhibition of MCH peptide mediated response measuring [3H]inositol phosphate production by IP3-SPA-YSI assay; type: functional, cell-based
Sequence (Q99705 whole entry): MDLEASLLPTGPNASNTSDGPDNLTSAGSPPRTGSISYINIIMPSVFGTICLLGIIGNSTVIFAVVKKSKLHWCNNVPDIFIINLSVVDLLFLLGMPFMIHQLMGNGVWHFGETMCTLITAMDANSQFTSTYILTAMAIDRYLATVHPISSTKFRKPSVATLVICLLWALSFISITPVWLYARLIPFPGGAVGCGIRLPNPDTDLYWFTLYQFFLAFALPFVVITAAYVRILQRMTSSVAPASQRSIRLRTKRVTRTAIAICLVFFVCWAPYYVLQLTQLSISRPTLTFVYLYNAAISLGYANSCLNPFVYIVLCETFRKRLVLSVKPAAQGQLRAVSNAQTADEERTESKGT
Recorded measurements of log10 of IC50, one per entry
Values reflect log10 of reported IC50 (nM).

Problem: Jot down log10 of IC50 (Melanin-concentrating hormone receptor 1 (Homo sapiens, UniProt Q99705)) of "Cc1nc(N2CCC(O)(C3CCC3)CC2)nc2ccc(NC(=O)COc3ccc(OC(F)(F)F)cc3)cc12" .
Solution: 1.43

Problem: Jot down log10 of IC50 (Melanin-concentrating hormone receptor 1 (Homo sapiens, UniProt Q99705)) of "Cc1nc(N2CCC(N3CCCC3)CC2)nc2ccc(NC(=O)COc3ccc(Cl)cc3)cc12" .
Solution: 1.91

Problem: Jot down log10 of IC50 (Melanin-concentrating hormone receptor 1 (Homo sapiens, UniProt Q99705)) of "Cc1nc(N2CCN(C(=O)C3CC3)CC2)nc2ccc(NC(=O)COc3ccc(Cl)cc3)cc12" .
Solution: 2.16

Problem: Jot down log10 of IC50 (Melanin-concentrating hormone receptor 1 (Homo sapiens, UniProt Q99705)) of "Cc1nc(N2CCN(C(=O)C(C)C)CC2)nc2ccc(NC(=O)COc3ccc(Cl)cc3)cc12" .
Solution: 1.96

Problem: Jot down log10 of IC50 (Melanin-concentrating hormone receptor 1 (Homo sapiens, UniProt Q99705)) of "Cc1nc(N2CCC(N)CC2)nc2ccc(NC(=O)COc3ccc(OC(F)(F)F)cc3)cc12" .
Solution: 1.90

Problem: Jot down log10 of IC50 (Melanin-concentrating hormone receptor 1 (Homo sapiens, UniProt Q99705)) of "CCC1(O)CCN(c2nc(C)c3cc(NC(=O)COc4ccc(OC(F)(F)F)cc4)ccc3n2)CC1" .
Solution: 1.77

Further cases:
Problem: Jot down log10 of IC50 (Melanin-concentrating hormone receptor 1 (Homo sapiens, UniProt Q99705)) of "Cc1nc(N2CCC(C(=O)N(C)C)CC2)nc2ccc(NC(=O)COc3ccc(OC(F)(F)F)cc3)cc12" .
Solution: 1.26

Problem: Jot down log10 of IC50 (Melanin-concentrating hormone receptor 1 (Homo sapiens, UniProt Q99705)) of "Cc1nc(N2CCC(C)(O)CC2)nc2ccc(NC(=O)COc3ccc(Cl)cc3)cc12" .
Solution: 2.92
